From: patent US20240360227A1

- ASSAYED SYSTEM: Recombinant human his-tagged IGF R extracellular domain protein (human) (UniProt P08069)
- MEASUREMENT PROTOCOL: SPR, Ab captured via anti-huIgG Fc, dissociation at pH 6
Overview of reported koff across a group of binders:
The figure you give is taken to be in s⁻¹; do not add the unit.

INSERT INTO results (binder, measurement) VALUES
  ('VRDN-02016 (antibody, V domains shown) VH: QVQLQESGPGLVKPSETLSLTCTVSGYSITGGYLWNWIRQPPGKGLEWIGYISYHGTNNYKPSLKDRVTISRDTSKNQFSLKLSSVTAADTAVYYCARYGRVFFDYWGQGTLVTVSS VL: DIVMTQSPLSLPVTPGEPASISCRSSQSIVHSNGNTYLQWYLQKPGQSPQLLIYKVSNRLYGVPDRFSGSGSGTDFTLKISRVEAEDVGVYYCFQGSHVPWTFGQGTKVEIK', 0.000111);

Now, please, on to the next binder.
Would you mind telling me what koff value was observed for VRDN-02042 (antibody, V domains shown) VH: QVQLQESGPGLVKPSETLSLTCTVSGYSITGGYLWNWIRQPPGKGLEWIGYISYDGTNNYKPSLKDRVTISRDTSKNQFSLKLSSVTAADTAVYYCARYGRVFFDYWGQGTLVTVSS VL: DIVMTQSPLSLPVTPGEPASISCRSSQSIVHSNGNTYHQWYLQKPGQSPQLLIYKVSNRLYGVPDRFSGSGSGTDFTLKISRVEAEDVGVYYCFQGSHVPWTFGQGTKVEIK ? 0.000101
